Values compiled from the Kinase Knowledgebase extract (Sharma et al. 2016).

- TGT: MAPK14;MAPK11;MAPK12 (human) (UniProt Q16539)
- EXPERIMENTAL_DETAILS: Inhibition of p38 Kinase Activity
MEASURE_NAME: IC50

Sample records with IC50:
- COMPOUND: "Nc1nc(NCCc2ccccc2)nc(Nc2ccc(S(=O)(=O)N(C=O)c3ncccn3)cc2)n1"
  IC50: "< 10 µM"
- COMPOUND: "CCN1CCC[C@@H](Nc2nc(Nc3cc(C(N)=O)ccc3C)nc(N(C)CC(C)(C)C)n2)C1"
  IC50: "< 1 µM"
- COMPOUND: "Cc1ccc(C(N)=O)cc1Nc1nc(N[C@H]2CCN(C(C)C#N)C2)nc(N(C)CC(C)C)n1 (stereo not given in full)"
  IC50: "< 1 µM"
- COMPOUND: "Cc1ccc(C(N)=O)cc1Nc1nc(N[C@H]2CCN(Cc3ccccc3F)C2)nc(N(C)CC(C)C)n1"
  IC50: "< 1 µM"

# next compound below
Requested read-out: IC50. Entry: Cc1ccc(C(N)=O)cc1Nc1nc(NC2CCNC2)nc(NC2CCN(Cc3ccccc3)C2)n1 (stereo not given) < 1 µM

----------
Recorded pIC50, one value per entry.
- TGT: MAPK14;MAPK11;MAPK12 (human)
- EXPERIMENTAL_DETAILS: Inhibition of p38 Kinase Activity
pIC50: −log10 of the molar value.

- MOLECULE: "CC1(C)C2CCC(CNc3nc(N)nc(Nc4ccc(S(=O)(=O)N(C=O)c5ncccn5)cc4)n3)C1C2 (centres undefined)"
  MEASURE_NAME: "pIC50"
  MEASURED_VALUE: "> 5.00"
- MOLECULE: "Cc1ccc2ncn(-c3nc(NCCOC(C)C)cc(N(C)C)n3)c2c1"
  MEASURE_NAME: "pIC50"
  MEASURED_VALUE: "> 5.00"
- MOLECULE: "CCNC(=O)c1ccc(C)c(Nc2nc(NC[C@H]3CCCN3)nc(N(C)CC(C)(C)C)n2)c1"
  MEASURE_NAME: "pIC50"
  MEASURED_VALUE: "> 6.00"

Give the reported pIC50 for Clc1nc(Nc2ccc3ncsc3c2)nc(N[C@H]2C[C@H]2c2ccccc2)n1 (system: MAPK14;MAPK11;MAPK12 (human)). > 5.00

Give the reported pIC50 for CC(CNc1nc(Cl)nc(Nc2ccc3ncsc3c2)n1)c1ccc(Cl)cc1 (centres undefined) (system: MAPK14;MAPK11;MAPK12 (human)). > 5.00

Give the reported pIC50 for Cc1ccc(C(N)=O)cc1Nc1nc(N[C@H]2CCN(Cc3ccc(C(C)C)cc3)C2)nc(N(C)CC(C)C)n1 (system: MAPK14;MAPK11;MAPK12 (human)). > 6.00

Give the reported pIC50 for c1nc2ccc(Nc3nc(N4CCNCC4)nc(N4CCC5CCCCC5C4)n3)cc2s1 (centres undefined) (system: MAPK14;MAPK11;MAPK12 (human)). > 5.00

Give the reported pIC50 for Clc1nc(Nc2ccc3ncsc3c2)nc(N2CCC3CCCCC3C2)n1 (centres undefined) (system: MAPK14;MAPK11;MAPK12 (human)). > 5.00

Give the reported pIC50 for CCCNC(=O)N1CC[C@@H](Nc2nc(Nc3cc(C(=O)NOC)ccc3C)nc(N(C)CC(C)(C)C)n2)C1 (system: MAPK14;MAPK11;MAPK12 (human)). > 6.00
